# Lookup of reported pest or weed control at 125 g/ha keyed by entry
- System: Setaria faberi (SETFA)
- experiment: Example B post-emergence herbicidal greenhouse test
- Format: in vivo
- experimentalSetup: 360 h, evaluated after 15 days, 100=total damage to plant, 0=no damage
- Protocol: Seeds of a variety of test species were sown in standard soil in pots. […] The test plants were then grown in a greenhouse under optimum conditions until, 15 days later for post-emergence and 20 days for pre-emergence, the test was evaluated (100=total damage to plant; 0=no damage to plant). […]
Write down the value, and be sure its unit follows.

Worked examples, 5 compounds total:
>>> result("CCc1ccc(-c2ccc(Cl)cc2Cl)cc1C1=C(OC(=O)OC)[C@H]2CC[C@H](C2)C1=O (single isomer, unassigned) [Compound P4]")
"100%"
>>> result("CCc1ccc(-c2ccc(Cl)c(C(F)(F)F)c2)cc1C1=C(O)[C@H]2CC[C@H](C2)C1=O (single isomer, unassigned) [Compound T37]")
"100%"
>>> result("COc1cc(Cl)ccc1-c1ccc(C)c(C2=C(O)[C@H]3CC[C@H](C3)C2=O)c1 (single isomer, unassigned) [Compound T11]")
"10%"
>>> result("CCc1cc(-c2ccc(Cl)cc2)cc(CC)c1C1=C(O)[C@H]2CC[C@H](C2)C1=O [Compound T62]")
"100%"
>>> result("CCc1ccc(-c2ccc(Cl)c(F)c2)cc1C1=C(O)[C@H]2CC[C@H](C2)C1=O (single isomer, unassigned) [Compound T36]")
"100%"

Problem: Consider the compound CCc1ccc(-c2ccc(Cl)cc2)cc1C1=C(O)[C@H]2CC[C@H](CC2)C1=O [Compound T54] and give its measured pest or weed control at 125 g/ha.
Result: 100%

Problem: Entry under review: Cc1ccc(-c2ccc(Cl)c(C(F)(F)F)c2)cc1C1=C(O)[C@H]2CC[C@H](C2)C1=O (single isomer, unassigned) [Compound T8] . Reported pest or weed control at 125 g/ha?
Result: 30%

Problem: Item under review: Cc1ccc(-c2cccc(Cl)c2)cc1C1=C(O)[C@H]2CC[C@H](C2)C1=O (single isomer, unassigned) [Compound T7] . Reported pest or weed control at 125 g/ha?
Result: 0%

Problem: I have this compound here, Cc1ccc(-c2ccc(Cl)c(Cl)c2)cc1C1=C(O)[C@H]2CC[C@H](C2)C1=O (single isomer, unassigned) [Compound T10] , and I need its recorded pest or weed control at 125 g/ha.
Result: 0%

Problem: Reported pest or weed control at 125 g/ha for CCc1ccc(-c2ccc(Cl)cc2Cl)cc1C1=C(O)[C@H]2CC[C@H](C2)C1=O [Compound T44] : what is it?
Result: 100%

Problem: Endpoint output: pest or weed control at 125 g/ha of CCc1ccc(-c2ccc(F)cc2)cc1C1=C(O)[C@H]2CC[C@H](C2)C1=O [Compound T3] . Value?
Result: 90%

---

- Tested on: Setaria faberi (SETFA)
- experiment: Example B post-emergence herbicidal greenhouse test
- Format: in vivo
- experimentalSetup: 360 h, evaluated after 15 days, 100=total damage to plant, 0=no damage
endpointLabel: pest or weed control at 125 g/ha (%)
State just the number; it will be interpreted in %.

Problem: Quick one: pest or weed control at 125 g/ha of CCc1ccc(-c2ccc(Cl)cc2)cc1C1=C(O)[C@H]2C=C[C@H](CC2)C1=O (single isomer, unassigned) [Compound T55] ?
Result: 100

Problem: So what's the measured pest or weed control at 125 g/ha for this one? CCc1ccc(-c2ccc(C)cc2)cc1C1=C(O)[C@H]2CC[C@H](C2)C1=O [Compound T5]
Result: 70
